Each record here notes measured soluble fraction (log2).
protocol: soluble fraction after stress (log2 fold change); higher = more stays soluble; pooled small domains, quantitative proteomics
details: stress: 50 degC
reported_property: soluble fraction (log2)

[[record]]
seq_string = "HMGEPVNSPMPGTILRVEVTQGAAVKEGQLLVVLEAMKMENEILAPKDGTVAQVVVQKGSHVETGSPLIVL"
reported_property = "soluble fraction (log2)"
result = -0.217

[[record]]
seq_string = "HMTGYVMIRVDGLSLEKFLNMAAEAGVRVSDVRRASYTVLYAVVSPRDLKKLQSVAPEKYTVTVR"
reported_property = "soluble fraction (log2)"
result = -0.664

[[record]]
seq_string = "HMPPELSDEVMEEAMSYLKNQYLNHGVKLEDYPALNKLFVDEAFRSEVIRKTQSNYKISYQSAMASLD"
reported_property = "soluble fraction (log2)"
result = 0.0219

[[record]]
seq_string = "HMNVTIGESIKNVINHYGTPIYSYNPNNQEKYYEFHTNKGVLVVTAIGKKNTGYVTRVSMTY"
reported_property = "soluble fraction (log2)"
result = -1.18

[[record]]
seq_string = "HMRAFTPSEAQVAHARRVMEAFWQHQREGHGAFALDGKMVDAPIVKAAARVLARAGLQDPNHPIHLA"
reported_property = "soluble fraction (log2)"
result = -0.0227

[[record]]
seq_string = "HMKKVIEFKDVSFAFEKKPILQDFNLLVQNKDRIGIVGDNGVGKSTLLNLIAERLQPQSGQVII"
reported_property = "soluble fraction (log2)"
result = 0.00568

[[record]]
seq_string = "HMGVKIELNENEQAIFAAMQKQVEAVLPDLRAQFADMSNKAWDNSVKTLTKNNLLKVSKEAEILFIRL"
reported_property = "soluble fraction (log2)"
result = -0.718

[[record]]
seq_string = "HMISKQQRQALILDIIQKQSITSQEALLTELQRHHVMTTQTTVSRDIRALGIVRIKDVNGELSYQQLQ"
reported_property = "soluble fraction (log2)"
result = -2.5

[[record]]
seq_string = "HMVPTATVGENTSTLPVRQLPGGPVLVVLVRGDIVLPLPGHAFQNGDVWREISTVNGVIGWVPDEFLDY"
reported_property = "soluble fraction (log2)"
result = -1.9

[[record]]
seq_string = "HMIPTDPNGDLIKILYTSDQINELYARAKLNDVEDLFLDWTKNVLGESNFEETGPTKNEYLIPQ"
reported_property = "soluble fraction (log2)"
result = -0.149

[[record]]
seq_string = "HMKTTKESLLEYIQREVFTDSIHKEGLSTNEIADAFQIQRSNVSSLLNTLVKEGKLEKTTGRPVLYRIPEK"
reported_property = "soluble fraction (log2)"
result = 0.0655

[[record]]
seq_string = "HMDSDELEAFRLITSVNGVGPKLGIAILSEFTAEKLTVFIASGDAKALTAASGVGIKLAQRIVLELKDKVG"
reported_property = "soluble fraction (log2)"
result = -0.199

[[record]]
seq_string = "HMSTRYVRTPAGQAEIQARVFKLSRPVRNLLLVINDSRSIDDWLVQVHGITADDVAMLRAEGLIAEVS"
reported_property = "soluble fraction (log2)"
result = -2.4

[[record]]
seq_string = "HMLDLPVRTINGRQYYYYEVRNRETVYGLSKRLGVTREEIVRYNPSMADGLKRGAILYFPVDEFSDRI"
reported_property = "soluble fraction (log2)"
result = -0.281

[[record]]
seq_string = "HMVDVNLLKYYVMESGKSLTDVAAAIGVTPATLHRKMSGESDFYRKEMQDIASYLGLDRDTIDRIFF"
reported_property = "soluble fraction (log2)"
result = -1.01

[[record]]
seq_string = "HMSATVLVHVLGEVRKPGVVSLPEGSRVQDAITAAGGLTSRAKPGDLNLAARVSDGAQLVIGRSGSQVRTT"
reported_property = "soluble fraction (log2)"
result = -0.0286

[[record]]
seq_string = "HMGWQPDPLTTRERLVAELATQASNAQIAEQLHLSVRTVEGHLAHVYTKLGITTRRELPAALAGAR"
reported_property = "soluble fraction (log2)"
result = -0.891

